Data origin: PubChem BioAssay (NCATS)

Test system: HeLa
ASSAY_DETAILS: Primary qHTS to identify gynecologic anti-cancer compounds using libraries of approved drugs and bioactive compounds (AID 1345084); further: on the % scale 0 is the no-effect control and ±100 the full control effect; nearly all actives have a fitted effect of over 55% in size
RUN_CONDITIONS: Gynecologic cancer cell panel viability, ATPlite luminescence, 48 h; series mostly up to 57.5 µM
Results filed as inconclusive are left out. Active and inactive are the calls of the source. The call rests on the fitted dose curve; in most records, active means well fitted cell-killing curve with a large enough effect; inconclusive means small, poorly fitted or top-dose-only effect, or effect the other way; inactive means flat fitted curve, though single readings scatter.

COMPOUND	activity change, negative = cytotoxicity
COC(=O)C1=CO[C@@H](O[C@@H]2O[C@H](CO)[C@@H](O)[C@H](O)[C@H]2O)[C@@H]2[C@@](C)(O)[C@@H](O)C[C@]12O	inactive
C=C(C(=O)O)C1CCC(C)C2CCC(=O)OC2(C)C1 (stereo unspecified)	inactive
CC(=O)c1c(C)cc(O[C@@H]2O[C@H](CO)[C@@H](O)[C@H](O)[C@H]2O)cc1O	inactive
CCC(=O)N[C@@H]1Cc2ccccc2[C@H](c2ccccc2)C1	inactive
COc1ccc(C)c2sc(NC(=O)c3ccncc3)nc12	inactive
CC(=O)O[C@@H]1[C@H](O[C@@H]2OC[C@](O)(CO)[C@H]2O)[C@@H](O[C@@H]2O[C@@H](C)[C@H](O)[C@@H](O)[C@H]2O)[C@H](OC(=O)[C@]23CCC(C)(C)C[C@H]2C2=CCC4[C@@]5(C)C[C@H](O)[C@H](O[C@@H]6O[C@H](C(=O)O)[C@@H](O)[C@H](O)[C@H]6O)[C@@](C)(C(=O)O)C5CC[C@@]4(C)[C@]2(C)CC3)O[C@@H]1C (stereo partly specified)	0.991% [at 11.6 µM] (inactive)
